All values here come from the supplement of paper PMC9170038.

Recorded apparent KD of K4 kissing-loop reporter by entry
# Tested on: K4 kissing-loop RNA reporter;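 note: bound reporter read as fluorescence of individual clusters on recovered sequencing chips by microscopy, with normalized cluster intensities fitted with a binding model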
# methodDescription: apparent KD of K4 kissing-loop reporter; higher = weaker reporter binding
# testParameters: Eterna round: R107; input ligand: arginine 13.2 mM
Write the value in nM as a bare number.

[
  {
    "seqString": "GGUAUCCAGUACCAUUGCGUUAAAACAGAAGGAGCGAGAAUAGACUCAGGUAGGUCGCUGUUUAUAGUCGAGUGAUGUUCGAAUC [Same State Arginine A GF 14]",
    "apparent KD of K4 kissing-loop reporter (nM)": 281
  }
]

Just so you know, measured apparent KD of K4 kissing-loop reporter for CUGUAUCAUAUUGAUACCAGAGAAAGAACCAGUGAUGUUGGAAAAGACGAAUAAAUUAUACUCCCUUGGCAGCGGAAAUGAACAG [Totally accidental] came out at 85.6

Consider AUUCUUUUUUUGAUGUUUUUUGUAUAAUGGCAGGAUAUCGUAGAAGCGAGAAGGGCUUUUAUGCGUUAUGAGUGAUGUUUGUAGG [szeewvmullin] . Its measured apparent KD of K4 kissing-loop reporter is 262

// apparent KD of K4 kissing-loop reporter lookup, sequence = UUACAGGAACAAGGAUAUGGCGUUGUAGUGAUGUUACAGCGAAGAGCUCCACGCGAUCGGACAAAACCAGAAGGUGUAUGGAAUC [theeternabot_exclusion_KL_FMN_B_42] , result: 108

apparent KD of K4 kissing-loop reporter recorded for this sequence, AGGUUUUGCGGAGGAUAUGCACUGAGGAGGAGAAUAUAGUGAUGUUAUAUAAGAGGAAGGAGAAGAGUAGAAGGCCGUGAGGUUU [SSFMNB.N] , is 109

###

# Test system: MS2 coat protein
# methodDescription: apparent KD of MS2 coat protein; designed switch direction (-1 OFF switch, 1 ON switch): -1; higher = weaker reporter binding
# testParameters: input ligand: none
endpointLabel: apparent KD of MS2 coat protein (nM)
Return type: number; implicit unit nM.

[
  {
    "seqString": "UCUGCUUUAGGAUAUACGAGAUCCUGCGAUGUACUCUUCGGACAUGAGGAUCACCCAUGUAGAAGGAAAGCAGG [Eternabot (L2) Solution 20] (Eterna round: R97, puzzle: Exclusion 2)",
    "apparent KD of MS2 coat protein [nM]": 12.2
  },
  {
    "seqString": "CUUGUGUAAGGAUAUAUGAGUCACGGAAAUAAACCGUGAAGAUAGAAGGUACAUGAGGAUCACCCAUGUAAAAC [Mod of Anonveat 5 - Jieux - Exclusion 4] (Eterna round: R97, puzzle: Exclusion 4)",
    "apparent KD of MS2 coat protein [nM]": 35.2
  },
  {
    "seqString": "ACGAUGACUGAAAAGUGUAAACUGACAUGAGGAUCACCCAUGUAGGAUAUGGCUACGAAAAGUAGUCAGAAGGGCAUGUCAUCA [Omei Exc(NG) 3 Av10] (Eterna round: R96, puzzle: Exclusion NG 3)",
    "apparent KD of MS2 coat protein [nM]": 17.1
  },
  {
    "seqString": "CUCUAGUCAGGAUAUUAGUUGCCACCUGGACACAGGCGGCAUGAGAAGGGACUUGAGGAUCACCCAAGUAAAAG [Quaesbe] (Eterna round: R97, puzzle: Exclusion 4)",
    "apparent KD of MS2 coat protein [nM]": 758
  },
  {
    "seqString": "CCGGCUUAGGAGGAUAUCCCACCCGAAAGGGUGGGAGAAGGCCUAACAUGAGGAUCACCCAUGUGUCCUACCGG [Mod of Eli 15 - Jieux - Exclusion 6] (Eterna round: R97, puzzle: Exclusion 6)",
    "apparent KD of MS2 coat protein [nM]": 25.5
  }
]

So for GCGCCAUCGUGAGAUGGCGUAAAUACAUGAGGAUCACCCAUGUAGGAUAUCGAUUGCUUUGCAGUCGAGAAGGGCAAGGUAUUU [JL ENG3 3.90] (Eterna round: R96, puzzle: Exclusion NG 3) , the logged apparent KD of MS2 coat protein turned out to be 24.9

Recorded apparent KD of MS2 coat protein (sequence UGUCAGAUGGUAGGAUAUCCAUAUUGAGUGACCCUUUCAUAACAUGAGGAUCACCCAUGUCGGUGGGAGAAGGGCCGUAUGGUG [salish99_ExNG02_R04_028] (Eterna round: R96, puzzle: Exclusion NG 2) ): 33.8
